Tested on: COLO 205 colon
Assay Name: NCI tumour cell line growth inhibition, 48 h
Where a SMILES comes first, the peptide text is derived from it. [ ]: non-standard residue; d: D form. The star is where a group is joined. mTyr = N[CH](Cc1cccc(O)c1)C(=O)O; Cbz = O=C(OCc1ccccc1)*; OBn = c1ccc(CO*)cc1
What TGI was measured for each of the following?

Note down TGI recorded for Fc1ccccc1C1SCc2nc3cc4ccccc4cc3n21 (centres undefined) > 100 µM

Note down TGI recorded for O=C(CC(=O)Nc1ccccc1)N/N=C/c1cc(N=Nc2ccc(Br)cc2)ccc1O > 10 µM

Note down TGI recorded for Cn1cc(-c2nonc2-c2cn(C)c3ccccc23)c2ccccc21 > 100 µM

Note down TGI recorded for COC(=O)C(Cc1cccc(O)c1)NC(=O)C(CC(=O)OCc1ccccc1)NC(=O)OCc1ccccc1 (centres undefined) (Cbz-Asp(OBn)-[mTyr]-OMe; configuration not given here) > 100 µM
